Values from patent US20140127158A1

System: HCV genotype 1b replicon (Con1)
EXPERIMENTAL_PROTOCOL: Inhibitory assay for HCV replicons (luciferase), genotype 1b Con1
Assay type: cell-based, Hepatitis C virus
TEST_CONTEXT: Hepatitis C virus; HCV-1b replicon cell lines; single agent; read-out: EC50
// reported EC50 per item
PARAMETER_MEASURED: EC50 (µM)

[
  {
    "COMPOUND": "CCC[C@H](NC(=O)[C@@H]1[C@H]2CCC[C@H]2CN1C(=O)[C@@H](NC(=O)[C@@H](NC(=O)c1cnccn1)C1CCCCC1)C(C)(C)C)C(=O)C(=O)NC1CC1 [Telaprevir, telaprevir, reference compound]",
    "UNIT_NAME": "µM",
    "OBS_VALUE": 0.302
  },
  {
    "COMPOUND": "NC(=O)c1ncn([C@@H]2O[C@H](CO)[C@@H](O)[C@H]2O)n1 [Ribavirin, ribavirin, reference compound]",
    "UNIT_NAME": "µM",
    "OBS_VALUE": 20.5
  },
  {
    "COMPOUND": "CC(C)(C)NC(=O)N[C@H](C(=O)N1C[C@H]2[C@@H]([C@H]1C(=O)NC(CC1CCC1)C(=O)C(N)=O)C2(C)C)C(C)(C)C (stereo partly shown) [Boceprevir, boceprevir, reference compound]",
    "UNIT_NAME": "µM",
    "OBS_VALUE": 0.361
  },
  {
    "COMPOUND": "CC(C)OC(=O)[C@H](C)N[P@](=O)(OC[C@H]1O[C@@H](n2ccc(=O)[nH]c2=O)[C@](C)(F)[C@@H]1O)Oc1ccccc1 [Sofosbuvir, sofosbuvir, reference compound]",
    "UNIT_NAME": "µM",
    "OBS_VALUE": 0.0915
  }
]

###

EXPERIMENTAL_PROTOCOL: Cytotoxicity assay (MTT)
Type: cell-based
TEST_CONTEXT: human, Infectious HCV, Genotype 2a, JFH1; read-out: CC50
Description: (4) Cytotoxicity assay. The sensitivity of the cell lines to inhibitors was examined using a 3-(4,5-Dimethylthiazol-2-yl)-2,5-diphenyltetrazolium bromide (MTT) assay. Briefly, Huh-7.5 cells were plated at a density of 1×10^5 cells per well in 12-well plates containing 1 mL of culture medium for 4 h. […] The MTT reagent was then added to each well, and the plates were incubated for 3 h at 37° C. in a humidified 5% CO2 atmosphere before reading at a wavelength of 563 nm using an ELISA plate reader. […]
PARAMETER_MEASURED: CC50 at 72 h

[
  {
    "SMILES_STR": "O=C(N[C@@H](C(=O)N1CCC[C@H]1c1ncc(-c2ccc(-c3ccc(-c4cnc([C@@H]5CCCN5C(=O)[C@H](NC(=O)C5CC5)c5ccccc5)s4)cc3)cc2)s1)c1ccccc1)C1CC1",
    "OBS_VALUE": "> 50 µM"
  }
]

###

EXPERIMENTAL_PROTOCOL: Cytotoxicity assay (MTT)
Format: cell-based
TEST_CONTEXT: human

[
  {
    "COMPOUND": "NC(=O)c1ncn([C@@H]2O[C@H](CO)[C@@H](O)[C@H]2O)n1 [Ribavirin, ribavirin, reference compound]",
    "CC50 at 72 h": "> 200 µM"
  }
]

###

System: genotype 1b HCV replicon with NS5A amino acid substitutions
EXPERIMENTAL_PROTOCOL: Transient replicon assay, genotype 1b NS5A amino acid substitutions
Type: cell-based, Hepatitis C virus
TEST_CONTEXT: Hepatitis C virus, genotype 1b NS5A Parental

[
  {
    "SMILES_STR": "O=C(N[C@@H](C(=O)N1CCC[C@H]1c1ncc(-c2ccc(-c3ccc(-c4cnc([C@@H]5CCCN5C(=O)[C@H](NC(=O)C5CC5)c5ccccc5)s4)cc3)cc2)s1)c1ccccc1)C1CC1",
    "ASSAY_SYSTEM": "genotype 1b HCV replicon with NS5A amino acid substitutions",
    "EC50 / pM": 1.5
  }
]
